test: Human liver microsome stability (hlm t1/2); type: in vitro ADME; settings: human liver microsomes
readout_kind: half-life

O=C(CCCCCCc1ccccc1)c1ncc(-c2ccccn2)o1 [Compound 2, reference compound]	2 to 4 min
O=C(c1ncc(-c2ccccn2)o1)C1CCc2cc(OCc3ccccc3)ccc2C1 (centres unmarked) [Compound 18]	12 to 15 min

----------
target: recombinant rat FAAH (rFAAH) (Rattus norvegicus, UniProt P97612); construct: The truncated rat FAAH (rFAAH) was expressed in E. coli and purified; made in house; host or cells: Escherichia coli; assay: Enzyme assay: inhibition of purified recombinant rat FAAH, 14C-oleamide hydrolysis, Ki by Dixon plot; type: biochemical; conditions: Ki, second of the two enantiomers, text b169, enantiomer distinction 5.1 vs 12 μM
pKi: −log10 of the molar value.
readout_kind: pKi

O=C(c1ncco1)C1CCc2ccccc2C1 (stereo not shown)	4.92

----------
target: recombinant rat FAAH (rFAAH) (Rattus norvegicus, UniProt P97612); construct: The truncated rat FAAH (rFAAH) was expressed in E. coli and purified; made in house; host or cells: Escherichia coli; assay: Enzyme assay: inhibition of purified recombinant rat FAAH, 14C-oleamide hydrolysis, Ki by Dixon plot; format: biochemical; details: Ki
readout_kind: Ki (nM)

O=C(c1ncc(-c2ccccn2)o1)C1CCc2ccccc2C1 (stereo not shown)	430

----------
Target: recombinant rat FAAH (rFAAH) (Rattus norvegicus)
Construct: The truncated rat FAAH (rFAAH) was expressed in E. coli and purified; made in house; host or cells: Escherichia coli
Sequence (P97612 30-579 limits assumed): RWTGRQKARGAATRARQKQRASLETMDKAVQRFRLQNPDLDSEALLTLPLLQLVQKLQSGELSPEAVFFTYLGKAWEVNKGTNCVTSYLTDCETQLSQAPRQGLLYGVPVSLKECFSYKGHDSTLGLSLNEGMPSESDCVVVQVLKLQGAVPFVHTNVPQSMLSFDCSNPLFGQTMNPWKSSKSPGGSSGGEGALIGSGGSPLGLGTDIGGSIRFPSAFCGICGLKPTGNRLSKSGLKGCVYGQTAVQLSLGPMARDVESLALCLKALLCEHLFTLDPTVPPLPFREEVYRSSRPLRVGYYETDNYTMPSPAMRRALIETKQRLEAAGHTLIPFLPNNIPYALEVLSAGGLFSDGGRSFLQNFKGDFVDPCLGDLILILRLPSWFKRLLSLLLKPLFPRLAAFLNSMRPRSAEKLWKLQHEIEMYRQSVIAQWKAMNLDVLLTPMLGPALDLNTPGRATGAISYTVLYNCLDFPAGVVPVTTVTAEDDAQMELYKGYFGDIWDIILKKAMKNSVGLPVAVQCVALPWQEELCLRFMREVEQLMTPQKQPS
Test: Enzyme assay: inhibition of purified recombinant rat FAAH, 14C-oleamide hydrolysis, Ki by Dixon plot
Type: biochemical
Conditions: Ki, first of the two enantiomers, text b169, enantiomer distinction 5.1 vs 12 μM
pKi: −log10 of the molar value.
readout_kind: pKi

O=C(c1ncco1)C1CCc2ccccc2C1 (stereo not shown) [Compound 37]	5.29

----------
molecular target: recombinant rat FAAH (rFAAH) (Rattus norvegicus); construct: The truncated rat FAAH (rFAAH) was expressed in E. coli and purified; made in house; host or cells: Escherichia coli; test: Enzyme assay: inhibition of purified recombinant rat FAAH, 14C-oleamide hydrolysis, Ki by Dixon plot; format: biochemical; conditions: Ki, Table 2, (R)-enantiomer, 1,2,3,4-tetrahydronaphthalene C2 acyl side chain
pKi: −log10 of the molar value.
Each item that follows carries a reported pKi.
readout_kind: pKi

N#Cc1cnc(C(=O)C2CCc3cc(OCc4ccccc4)ccc3C2)o1 (single isomer, unassigned) [(R)-17]	6.92
COC(=O)c1cnc(C(=O)C2CCc3cc(OCc4ccccc4)ccc3C2)o1 (single isomer, unassigned) [(R)-16]	7.28
O=C(O)c1cccc(-c2cnc(C(=O)C3CCc4cc(OCc5ccccc5)ccc4C3)o2)n1 (single isomer, unassigned) [(R)-20]	6.13
COC(=O)c1cccc(-c2cnc(C(=O)C3CCc4cc(OCc5ccccc5)ccc4C3)o2)n1 (single isomer, unassigned) [(R)-19]	5.35
COC(=O)c1cnc(C(=O)C2CCc3cc(Oc4ccccc4)ccc3C2)o1 (single isomer, unassigned) [(R)-10]	7.23
O=C(c1ncc(-c2ccccn2)o1)C1CCc2cc(Oc3ccccc3)ccc2C1 (single isomer, unassigned) [(R)-12]	6.54
N#Cc1cnc(C(=O)C2CCc3cc(-c4ccccc4)ccc3C2)o1 (single isomer, unassigned) [(R)-5]	7.21
O=C(O)c1cccc(-c2cnc(C(=O)C3CCc4cc(-c5ccccc5)ccc4C3)o2)n1 (single isomer, unassigned) [(R)-8]	6.30
N#Cc1cnc(C(=O)C2CCc3cc(Oc4ccccc4)ccc3C2)o1 (single isomer, unassigned) [(R)-11]	7.27
COC(=O)c1cccc(-c2cnc(C(=O)C3CCc4cc(-c5ccccc5)ccc4C3)o2)n1 (single isomer, unassigned) [(R)-7]	6.15
O=C(c1ncc(-c2ccccn2)o1)C1CCc2cc(OCc3ccccc3)ccc2C1 (single isomer, unassigned) [(R)-18]	6.52
O=C(O)c1cccc(-c2cnc(C(=O)C3CCc4cc(Oc5ccccc5)ccc4C3)o2)n1 (single isomer, unassigned) [(R)-14]	6.66
O=C(c1ncco1)C1CCc2cc(Oc3ccccc3)ccc2C1 (single isomer, unassigned) [(R)-9]	6.39
O=C(c1ncc(-c2ccccn2)o1)C1CCc2cc(-c3ccccc3)ccc2C1 (single isomer, unassigned) [(R)-6]	6.62
COC(=O)c1cccc(-c2cnc(C(=O)C3CCc4cc(Oc5ccccc5)ccc4C3)o2)n1 (single isomer, unassigned) [(R)-13]	6.06
COC(=O)c1cnc(C(=O)C2CCc3cc(-c4ccccc4)ccc3C2)o1 (single isomer, unassigned) [(R)-4]	5.85
O=C(c1ncco1)C1CCc2cc(-c3ccccc3)ccc2C1 (single isomer, unassigned) [(R)-3]	6.34
O=C(c1ncco1)C1CCc2cc(OCc3ccccc3)ccc2C1 (single isomer, unassigned) [(R)-15]	7.06
